- run.description: Preliminary pharmacokinetics in SD rats
- Format: in vivo
- condition.description: male, SD, rat, plasma, iv, 2 mg/kg, rat, i.v.; read-out: CLz, Mean (converted)

[
  {
    "compound": "CC1=CC(=O)[C@@H](O)[C@]2(C)[C@H]3[C@@H](O)[C@H](O)[C@@]4(CO)OC[C@@]35[C@@H](C[C@@H]12)OC(=O)[C@H](O)[C@]54O [BH, Bruceine H]",
    "clearance / mL/min/kg": 31.9
  }
]

###

- run.description: Preliminary pharmacokinetics in SD rats
- Assay type: in vivo
- condition.description: male, SD, rat, plasma, po, 10 mg/kg, p.o. 10 mg/kg, 2 h; read-out: Concentration of BH in rat plasma, individual rats No1-No3

[
  {
    "compound": "CC1=CC(=O)[C@@H](O)[C@]2(C)[C@H]3[C@@H](O)[C@H](O)[C@@]4(CO)OC[C@@]35[C@@H](C[C@@H]12)OC(=O)[C@H](O)[C@]54O [BH, Bruceine H]",
    "concentration at 2 h (ng/mL)": 130
  }
]
